Source of measurements: patent US10954232B2

testedTarget: ALK5 kinase (Homo sapiens, UniProt P36897)
Construct: GST; purchased Thermo Fisher Scientific Solutions
Sequence (P36897 34-503): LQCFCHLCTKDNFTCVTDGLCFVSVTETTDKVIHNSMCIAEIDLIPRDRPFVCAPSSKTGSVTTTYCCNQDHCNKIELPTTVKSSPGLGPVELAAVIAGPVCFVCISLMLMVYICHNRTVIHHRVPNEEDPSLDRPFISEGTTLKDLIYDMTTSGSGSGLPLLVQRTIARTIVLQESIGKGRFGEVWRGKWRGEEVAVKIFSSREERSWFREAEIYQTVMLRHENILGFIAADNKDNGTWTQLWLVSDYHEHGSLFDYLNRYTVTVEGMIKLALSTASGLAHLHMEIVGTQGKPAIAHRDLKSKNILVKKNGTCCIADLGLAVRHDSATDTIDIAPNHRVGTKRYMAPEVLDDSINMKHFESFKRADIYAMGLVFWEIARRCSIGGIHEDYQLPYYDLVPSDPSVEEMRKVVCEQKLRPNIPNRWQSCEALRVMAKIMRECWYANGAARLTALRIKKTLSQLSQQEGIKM
assayProcedure: Activity inhibition test on ALK5 enzyme (LanthaScreen Eu binding kinase assay)
conditionNotes: kinase tracer 178, 60 minutes at room temperature
Procedure: For each of the compounds obtained in Examples 1 to 227, inhibitory activity against ALK5 kinase was measured. For this, a LanthaScreen Eu binding kinase assay method was used, and ALK5 kinase, a kinase buffer, a kinase tracer 178, and a LanthaScreen Eu-GST binding antibody were all purchased from Thermo Fisher Scientific Solutions. […] Then a fluorescence value was measured using a fluorescence meter (molecular device) ([…], 665 nm emission filter). […]
# IC50 listing for each entry below

Given the entry `COc1ccc(NC(=O)c2cc(-c3ccnc4ccccc34)n(-c3cccc(C)n3)n2)c(F)c1` , report its measured IC50.
~100 nM

Next record, please: `Cc1cccc(-n2nc(C(=O)Nc3ccc(N(C)C)cc3)cc2-c2ccc3nccnc3c2)n1`
< 100 nM

Note, next up: `Cc1cccc(-n2nc(C(=O)NCc3ccccc3F)cc2-c2ccc3nccnc3c2)n1`
< 100 nM

* * *

testedTarget: ALK5 kinase (Homo sapiens)
Construct: GST; purchased Thermo Fisher Scientific Solutions
assayProcedure: Activity inhibition test on ALK5 enzyme (LanthaScreen Eu binding kinase assay)
conditionNotes: kinase tracer 178, 60 minutes at room temperature
endpoint: IC50 (nM)

Some solved cases for reference:
Entry `Cc1cccc(-n2nc(C(=O)Nc3ccc(N4CCCC4)cc3)cc2-c2ccc3ncnn3c2)n1` : reported IC50 = ?
7

Entry `Cc1cccc(-n2nc(C(=O)Nc3ccccc3)cc2-c2ccc3ncnn3c2)n1` please
9.5

1: Cc1cccc(-n2nc(C(=O)Nc3ccc(N)cc3)cc2-c2ccc3ncnn3c2)n1
2: COc1cc(NC(=O)c2cc(-c3ccc4ncsc4c3)n(-c3cccc(C)n3)n2)ccc1F
Of 1 and 2 , which carries the smaller reported IC50 figure? Your choice should be expressed through its label.
2

* * *

testedTarget: ALK5 kinase (Homo sapiens)
Construct: GST; purchased Thermo Fisher Scientific Solutions
assayProcedure: Activity inhibition test on ALK5 enzyme (LanthaScreen Eu binding kinase assay)
conditionNotes: kinase tracer 178, 60 minutes at room temperature
Experimental: For each of the compounds obtained in Examples 1 to 227, inhibitory activity against ALK5 kinase was measured. For this, a LanthaScreen Eu binding kinase assay method was used, and ALK5 kinase, a kinase buffer, a kinase tracer 178, and a LanthaScreen Eu-GST binding antibody were all purchased from Thermo Fisher Scientific Solutions. […] Then a fluorescence value was measured using a fluorescence meter (molecular device) ([…], 665 nm emission filter). […]
Recorded IC50 for the following compounds

Some compounds with recorded IC50:
Entry under review: `CSc1cccc(NC(=O)c2cc(-c3ccc4ncsc4c3)n(-c3cccc(C)n3)n2)c1` . Reported IC50?
10 to 100 nM

Try this compound next: `COc1ccc(NC(=O)c2cc(-c3ccc4ncsc4c3)n(-c3cccc(C)n3)n2)cc1`
5 nM

Consider the additional compound presented here.
What does the data say about its IC50? Entry: `Cc1cccc(-n2nc(C(=O)Nc3ccc(F)cc3F)cc2-c2ccc3nccnc3c2)n1`
10 to 100 nM

* * *

Each entry below lists one item and its recorded IC50 value.
testedTarget: ALK5 kinase (Homo sapiens, UniProt P36897)
Construct: GST; purchased Thermo Fisher Scientific Solutions
assayProcedure: Activity inhibition test on ALK5 enzyme (LanthaScreen Eu binding kinase assay)
conditionNotes: kinase tracer 178, 60 minutes at room temperature

Here are 3 compounds together with their reported answers.
I would be grateful if you could share the reported IC50 for `COc1ccc(NC(=O)c2cc(-c3ccc4ncnn4c3)n(-c3cccc(C)n3)n2)c(F)c1` .
10 to 100 nM

Now consider `Cc1cccc(-n2nc(C(=O)Nc3ccc(F)c(F)c3)cc2-c2ccc3nccnc3c2)n1` and answer again.
10 to 100 nM

Same lookup for `Cc1cccc(-n2nc(C(=O)Nc3ccc(Br)cc3)cc2-c2ccc3nccnc3c2)n1` , please.
10 to 100 nM

---
Record request: IC50 value, item `Cc1cccc(-n2nc(C(=O)Nc3ccc(F)c(F)c3)cc2-c2ccc3ncnn3c2)n1`
~10 nM
